# Assayed system: human FPR1 (Homo sapiens)
# Sequence (P21462 whole entry): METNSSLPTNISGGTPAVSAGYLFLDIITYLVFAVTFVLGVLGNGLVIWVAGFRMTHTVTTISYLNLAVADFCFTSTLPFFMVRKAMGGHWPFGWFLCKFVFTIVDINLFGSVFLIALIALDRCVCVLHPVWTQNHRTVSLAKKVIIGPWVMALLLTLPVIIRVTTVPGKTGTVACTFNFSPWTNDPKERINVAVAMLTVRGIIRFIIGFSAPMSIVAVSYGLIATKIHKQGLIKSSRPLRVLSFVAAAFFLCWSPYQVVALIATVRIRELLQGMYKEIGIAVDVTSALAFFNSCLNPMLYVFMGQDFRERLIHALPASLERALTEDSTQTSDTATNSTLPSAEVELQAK
# Test: FPR1 cyclic adenosine monophosphate (cAMP) assay
# Experimental parameters: CHO cells overexpressing human FPR1; forskolin 10 μM; inhibition of cAMP production; HTRF; read-out: hFPR1 cAMP2 EC50
// reported EC50 per item
Answer format: numeric, nM implied, no suffix.

Compound	Assayed system	EC50 (nM)
COc1cc(F)c(-c2c(NC(=O)c3ccc(OC(F)F)cc3)c(=O)n(-c3cc(OCC4CCCO4)cc(C)n3)n2C)c(F)c1 (stereo not shown) [Example 391]	human FPR1 (Homo sapiens)	240

Consider the record given below.
QUERY: For the compound COc1cc(F)c(-c2c(NC(=O)c3ccc(OC(F)F)cc3)c(=O)n(-c3cccc(C#N)c3)n2C)c(F)c1 , what EC50 is on record?
RESULT: 37

###

# Lookup of reported pEC50 keyed by entry
# Assayed system: human FPR2 (Homo sapiens, UniProt P25090)
# Sequence (P25090 whole entry): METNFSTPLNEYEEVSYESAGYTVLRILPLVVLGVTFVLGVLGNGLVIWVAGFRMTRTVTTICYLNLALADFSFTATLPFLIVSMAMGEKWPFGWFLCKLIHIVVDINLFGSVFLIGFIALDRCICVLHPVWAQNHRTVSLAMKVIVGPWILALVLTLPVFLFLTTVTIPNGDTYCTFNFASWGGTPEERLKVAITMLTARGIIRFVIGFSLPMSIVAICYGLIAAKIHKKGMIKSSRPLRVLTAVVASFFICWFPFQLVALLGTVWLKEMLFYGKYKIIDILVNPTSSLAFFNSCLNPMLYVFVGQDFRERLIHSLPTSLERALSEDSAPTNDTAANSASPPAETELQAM
# Test: FPR2 cyclic adenosine monophosphate (cAMP) assay
# Assay type: cell-based
# Experimental parameters: CHO cells overexpressing human FPR2; forskolin 5 μM; inhibition of cAMP production; HTRF; read-out: hFPR2 cAMP2 EC50
Would you please state pEC50, meaning minus log10 of the concentration in mol/L, as a bare number?

Take a look at these entries with their results.
Compound	Value reported
COc1cc(F)c(-c2c(NC(=O)c3ccc(OC(F)F)cc3)c(=O)n(-c3nc(N4CCC[C@H]4CO)ccc3C(F)(F)F)n2C)c(F)c1 [Example 258]	8.05
COc1cc(F)c(-c2c(NC(=O)c3ccc(OC(F)F)cc3)c(=O)n(-c3cc(C(F)(F)F)ccn3)n2C)c(F)c1 [Example 62]	8.22

Attention now turns to another entry.
QUERY: Quick one: pEC50 for COc1cc(F)c(-c2c(NC(=O)c3ccc(OC(F)F)cc3)c(=O)n(-c3ccnc(Cl)c3)n2C)c(F)c1 [Example 116] ?
RESULT: 7.68

###

# Assayed system: human FPR2 (Homo sapiens)
# Test: FPR2 cyclic adenosine monophosphate (cAMP) assay
# Type: cell-based
# Experimental parameters: CHO cells overexpressing human FPR2; forskolin 5 μM; inhibition of cAMP production; HTRF; read-out: hFPR2 cAMP2 EC50
Documented pEC50 across a set of compounds
Note: pEC50 values are expressed as the negative base-10 logarithm of concentration in M.

Example compounds with recorded pEC50:
Compound	Value reported
COc1cc(F)c(-c2c(NC(=O)c3ccc(OC(F)F)cc3)c(=O)n(-c3nc(N4CCC(C(N)=O)C4)ccc3C(F)(F)F)n2C)c(F)c1 (stereo not drawn) [Example 303]	9.00
COc1cc(F)c(-c2c(NC(=O)c3ccc(OC(F)F)cc3)c(=O)n(-c3cccc(N4CC(C)(O)C4)n3)n2C)c(F)c1 [Example 312]	7.92
COc1cc(F)c(-c2c(NC(=O)c3ccc(OC(F)(F)F)cc3)c(=O)n(-c3cccc(OC)n3)n2C)c(F)c1 [Example 74]	8.22
COc1cc(F)c(-c2c(NC(=O)c3ccc(OC(F)F)cc3)c(=O)n(-c3nc(C(F)(F)F)ccc3OCC3CCOC3)n2C)c(F)c1 (stereo not drawn) [Example 370]	8.30
COc1cc(F)c(-c2c(NC(=O)c3ccc(OC(F)(F)F)cc3)c(=O)n(-c3cccc(Cl)c3Cl)n2C)c(F)c1 [Example 35]	8.22

Please examine the following record next.
QUERY: Item: COc1cc(F)c(-c2c(NC(=O)c3ccc(OC(F)F)cc3)c(=O)n(-c3nc(NCC4(CO)CCC4)ccc3C(F)(F)F)n2C)c(F)c1 [Example 290] Test system: human FPR2 (Homo sapiens) Read-out: pEC50 Value: ?
RESULT: 9.00

###

# Assayed system: human FPR2 (Homo sapiens, UniProt P25090)
# Test: FPR2 cyclic adenosine monophosphate (cAMP) assay
# Assay type: cell-based
# Experimental parameters: CHO cells overexpressing human FPR2; forskolin 5 μM; inhibition of cAMP production; HTRF; read-out: hFPR2 cAMP2 EC50
Value kind: pEC50
Answer as the number alone; pEC50 is minus log10 of concentration in mol/L.

Molecule	pEC50
COc1cc(F)c(-c2c(NC(=O)c3ccc(OC(F)F)cc3)c(=O)n(-c3nc(N(C)CC(C)(C)O)ccc3C(F)(F)F)n2C)c(F)c1 [Example 261]	8.70
COc1cc(O)c(-c2c(NC(=O)c3ccc(OC(F)F)cc3)c(=O)n(-c3nc(NCCO)ccc3C(F)(F)F)n2C)c(F)c1 [Example 230]	8.00
COc1cc(F)c(-c2c(NC(=O)c3ccc(OC(F)F)cc3)c(=O)n(-c3nc(N(C)S(C)(=O)=O)ccc3C(F)(F)F)n2C)c(F)c1 [Example 241]	8.70
COc1cc(F)c(-c2c(NC(=O)c3ccc(OC(F)F)cc3)c(=O)n(-c3nc(N[C@H]4CCOC4)ccc3C(F)(F)F)n2C)c(F)c1 [Example 255]	8.70
COc1cc(F)c(-c2c(NC(=O)c3ccc(OC(F)F)cc3)c(=O)n(-c3cccc(C)c3C)n2C)c(F)c1 [Example 3]	8.10

QUERY: # input molecule: COc1cc(F)c(-c2c(NC(=O)c3ccc(OC(F)F)cc3)c(=O)n(-c3nc(Cl)ccc3Cl)n2C)c(F)c1 [Example 242] ; wanted: its pEC50
RESULT: 7.70

QUERY: Entry COc1cc(O)nc(-n2c(=O)c(NC(=O)c3ccc(OC(F)F)cc3)c(-c3c(F)cc(OC)cc3F)n2C)c1 [Example 326] please
RESULT: 7.24

QUERY: How about CCOC(=O)c1cc(F)cc(-n2c(=O)c(NC(=O)c3ccc(OC(F)F)cc3)c(-c3c(F)cc(OC)cc3F)n2C)c1 [Example 133] ?
RESULT: 8.52

QUERY: Follow-up entry: CCOc1cc(-n2c(=O)c(NC(=O)c3ccc(OC(F)F)cc3)c(-c3c(F)cc(OC)cc3F)n2C)cc(C(F)(F)F)c1 [Example 122]
RESULT: 7.68

QUERY: Now this one: COc1cc(F)c(-c2c(NC(=O)c3ccc(OC(F)F)cc3)c(=O)n(-c3cccc(N4CCN(CCCO)CC4)n3)n2C)c(F)c1 [Example 208]
RESULT: 8.52

QUERY: Moving on to the next molecule: Cc1cc(OCC(C)(C)O)nc(-n2c(=O)c(NC(=O)c3ccc(OC(F)F)cc3)c(-c3c(F)cc(OC(F)F)cc3F)n2C)c1 [Example 400]
RESULT: 7.24

QUERY: Input COc1cc(F)c(-c2c(NC(=O)c3ccc(OC(F)F)cc3)c(=O)n(-c3cc(OCC(C)O)cc(C)n3)n2C)c(F)c1 (centres unmarked) [Example 393]
RESULT: 7.82

QUERY: Subsequent entry: COc1cc(C2CCCN(CCO)C2)nc(-n2c(=O)c(NC(=O)c3ccc(OC(F)F)cc3)c(-c3c(F)cc(OC)cc3F)n2C)c1 (centres unmarked) [Example 338]
RESULT: 8.70

QUERY: Another molecule to check: COc1cc(F)c(-c2c(NC(=O)c3ccc(OC(F)F)cc3)c(=O)n(-c3ncccc3N3CC(C)(O)C3)n2C)c(F)c1 [Example 211]
RESULT: 7.92

QUERY: Then this molecule: COc1cc(F)c(-c2c(NC(=O)c3ccc(OC(F)F)cc3)c(=O)n(-c3cc(Cl)cc(OC(F)(F)F)c3)n2C)c(F)c1 [Example 123]
RESULT: 7.72

QUERY: What would you report for COc1cc(OCC(C)(CO)CO)nc(-n2c(=O)c(NC(=O)c3ccc(OC(F)F)cc3)c(-c3c(F)cc(OC)cc3F)n2C)c1 [Example 325] ?
RESULT: 8.52

QUERY: Same question, COc1cc(F)c(-c2c(NC(=O)c3ccc(OC(F)F)cc3)c(=O)n(-c3cc(OCC4CCCO4)cc(C)n3)n2C)c(F)c1 (centres unmarked) [Example 396] this time
RESULT: 8.70

QUERY: Field entry: COc1cc(F)c(-c2c(NC(=O)c3ccc(OC(F)F)cc3)c(=O)n(-c3nc(C(F)(F)F)ccc3Br)n2C)c(F)c1 [Example 159]
RESULT: 8.15

###

# Assayed system: human FPR1 (Homo sapiens)
# Test: FPR1 cyclic adenosine monophosphate (cAMP) assay
# Experimental parameters: CHO cells overexpressing human FPR1; forskolin 10 μM; inhibition of cAMP production; HTRF; read-out: hFPR1 cAMP2 EC50
pEC50: −log10 of the molar value.
Value kind: pEC50

Some molecules with known pEC50 results, for comparison:
Molecule	pEC50
COc1cc(C2CCCN(C)C2)nc(-n2c(=O)c(NC(=O)c3ccc(OC(F)F)cc3)c(-c3c(F)cc(OC)cc3F)n2C)c1 (stereo not drawn) [Example 342]	< 5.00
COc1cc(F)c(-c2c(NC(=O)c3ccc(OC(F)F)cc3)c(=O)n(-c3ncccc3OC(F)F)n2C)c(F)c1 [Example 158]	< 5.00
COc1cc(F)c(-c2c(NC(=O)c3ccc(OC(F)F)cc3)c(=O)n(-c3nc(N4CCN(C)CC4)ccc3C(F)(F)F)n2C)c(F)c1 [Example 135]	5.62
COc1cc(F)c(-c2c(NC(=O)c3ccc(OC(F)F)cc3)c(=O)n(-c3cc(CO)cc(OCCO)n3)n2C)c(F)c1 [Example 336]	< 5.00
COc1cc(F)c(-c2c(NC(=O)c3ccc(OC(F)F)cc3)c(=O)n(-c3nc(NC[C@H](C)O)ccc3C(F)(F)F)n2C)c(F)c1 [Example 272]	< 5.00

Proceeding to the next molecule to report its pEC50.
QUERY: # query: pEC50 of entry COc1cc(F)c(-c2c(NC(=O)c3ccc(OC(F)F)cc3)c(=O)n(-c3cnc4ccccc4n3)n2C)c(F)c1 [Example 64]
RESULT: 6.10
